Serine/threonine-protein kinase pim-1 (Homo sapiens, UniProt P11309) pIC50 data
Sequence (P11309 whole entry): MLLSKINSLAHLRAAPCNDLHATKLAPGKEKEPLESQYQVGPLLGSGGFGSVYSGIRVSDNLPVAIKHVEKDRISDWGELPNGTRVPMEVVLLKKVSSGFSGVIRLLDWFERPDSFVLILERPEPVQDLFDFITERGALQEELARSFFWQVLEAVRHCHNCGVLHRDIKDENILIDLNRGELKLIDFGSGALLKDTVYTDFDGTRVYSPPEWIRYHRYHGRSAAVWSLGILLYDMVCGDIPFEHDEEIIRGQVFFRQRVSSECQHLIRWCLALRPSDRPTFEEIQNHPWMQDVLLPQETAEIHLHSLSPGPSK
Conceptually, pIC50 converts a concentration in mol/L into minus its log10.

O=c1c(O)c(-c2ccc(O)cc2)oc2cc(O)ccc12; 6.01
O=c1cc(-c2ccc(O)c(O)c2)oc2cc(O)cc(O)c12; 5.80

Serine/threonine-protein kinase pim-1 (Homo sapiens, UniProt P11309) data for `O=c1c(O)c(-c2ccc(O)c(O)c2)oc2c(O)c(O)cc(O)c12` ; its pIC50: 6.37

Serine/threonine-protein kinase pim-1 (Homo sapiens, UniProt P11309) data for O=c1cc(-c2ccccc2)oc2cc(O)cc(O)c12 [5,7-dihydroxy-2-phenyl-4H-chromen-4-one] ; its pIC50: 4.82

Serine/threonine-protein kinase pim-1 (Homo sapiens, UniProt P11309) data for `O=c1c(O)c(-c2ccc(O)c(O)c2)oc2cc(O)ccc12` ; its pIC50: 6.07

Serine/threonine-protein kinase pim-1 (Homo sapiens, UniProt P11309) data for `O=c1c(O)c(-c2ccc(O)cc2)oc2cc(O)cc(O)c12` ; its pIC50: 5.89

Serine/threonine-protein kinase pim-1 (Homo sapiens, UniProt P11309) data for `O=c1cc(-c2cc(O)c(O)c(O)c2)oc2cc(O)ccc12` ; its pIC50: 5.11

====

Molecular target: Serine/threonine-protein kinase pim-1 (Homo sapiens, UniProt P11309)
pIC50: −log10 of the molar value.
Quick rule for you: pIC50 at 5 or higher means Satisfied, lower means Not satisfied.

O=c1cc(-c2ccc(O)cc2)oc2cc(O)cc(O)c12; Satisfied

Lookup: Given `O=c1c(O)c(-c2cc(O)c(O)c(O)c2)oc2cc(O)cc(O)c12` , state whether its pIC50 is at least 5.
Found: Satisfied

Lookup: Given O=c1c(O)c(-c2ccccc2)oc2cc(O)ccc12 [3,7-dihydroxy-2-phenyl-4H-chromen-4-one] , state whether its pIC50 is at least 5.
Found: Satisfied

Lookup: Given `O=C1C[C@H](c2ccccc2)Oc2cc(O)cc(O)c21` , state whether its pIC50 is at least 5.
Found: Not satisfied

Lookup: Given O=c1cc(-c2ccccc2)oc2cc(O)ccc12 [7-Hydroxy-flavone, 5a] , state whether its pIC50 is at least 5.
Found: Not satisfied
